Here the recorded composite z-score is given for each entry.
ASSAY_NOTES: small molecules captured by biotinylated probe aFSTL3 – biochemical, small-molecule microarray, fluorescence 635/667, stem cell growth factor project, primary screen (AID 1064);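 note: measures binding of the biotinylated anti-FSTL3 antibody to printed compounds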
ASSAY_CONTEXT: higher = more signal
Enter the number alone.

> print(dat)
                                 mol.smiles  meas.value
1  CC(C)=C1C(=O)C(c2ccccc2)=C2CN3C(=O)N(CCc4ccccc4)C(=O)[C@]3(C)[C@H]21       0.532
2  O=C1N(CCS(=O)(=O)c2ccccc2)c2ccccc2C[C@]12N=C(c1ccc(OCCCO)cc1)O[C@@H]2c1ccccc1       0.227

Name the reported composite z-score value associated with the compound `C=C(CCCC)/C(=C/C[C@H](OC(=O)c1ccncc1)c1ccc(OCCO)cc1)c1cnc2ccccc2c1`
0.102

What about this compound? `CO[C@H]1O[C@H](CO)[C@@H](OC(=O)Nc2ccccc2)[C@H](OC(=O)Nc2ccccc2)[C@H]1OC(=O)Nc1ccccc1`
-0.114

###

# reported composite z-score; entries follow
TARGET_UNDER_TEST: Pro-neuregulin-1, membrane-bound isoform (Homo sapiens)
ASSAY_NOTES: small molecules binding neuregulin-1 protein – biochemical, small-molecule microarray, fluorescence 635/667, psychiatric disease protein project, primary screen (AID 1075);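 note: score combines 667 nm spot fluorescence with signal to noise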
ASSAY_CONTEXT: NRG1 binding, 635 nm fluorescence, higher = more signal

Check out these entries, answers already filled in.
COMPOUND	composite z-score
COC(=O)[C@@]1(Cc2ccccc2)[C@H]2c3cc(C(=O)N4CCCC4)n(Cc4ccc(OC)c(OC)c4)c3C[C@H]2CN1C(=O)c1ccccc1	2.16
COc1ccc([Si](C)(C)[C@@H]2[C@@H](CC(=O)N3Cc4ccccc4C[C@H]3CO)O[C@]3(C(=O)N(Cc4cccc(N5CCOC5=O)c4)c4ccccc43)[C@H]2C)cc1	0.309
CN(C)CCCC[C@@H]1NC(=O)[C@@H]2C[C@H](C(=O)NCCCCCN)[C@H](c3cccc(OCCO)c3)N2C1=O	1.09
COCCOC(=O)N1C(=O)[C@@]2(c3cc(C#Cc4ccc(OC)cc4)ccc31)[C@H](c1ccc(OCCO)cc1)N1[C@H](c3ccccc3)[C@H](c3ccccc3)OC(=O)[C@H]1[C@@H]2C(=O)NC[C@H](O)c1ccccc1	0.455
CC(C)[Si](C#CCCc1ccccc1)(O[C@H](c1ccccc1)c1cn(Cc2ccccc2)nn1)C(C)C	0.215

Now take the following compound into account.
Request - read-out composite z-score | tested on Pro-neuregulin-1, membrane-bound isoform (Homo sapiens) | compound `CN(C)CCCC[C@@H]1NC(=O)[C@H]2C[C@@H](C(=O)O)[C@@H](c3ccc(O)cc3)N2C1=O`
2.84

###

TARGET_UNDER_TEST: Luciferin 4-monooxygenase (Photinus pyralis) (UniProt P08659)
Sequence (P08659 whole entry, looked up): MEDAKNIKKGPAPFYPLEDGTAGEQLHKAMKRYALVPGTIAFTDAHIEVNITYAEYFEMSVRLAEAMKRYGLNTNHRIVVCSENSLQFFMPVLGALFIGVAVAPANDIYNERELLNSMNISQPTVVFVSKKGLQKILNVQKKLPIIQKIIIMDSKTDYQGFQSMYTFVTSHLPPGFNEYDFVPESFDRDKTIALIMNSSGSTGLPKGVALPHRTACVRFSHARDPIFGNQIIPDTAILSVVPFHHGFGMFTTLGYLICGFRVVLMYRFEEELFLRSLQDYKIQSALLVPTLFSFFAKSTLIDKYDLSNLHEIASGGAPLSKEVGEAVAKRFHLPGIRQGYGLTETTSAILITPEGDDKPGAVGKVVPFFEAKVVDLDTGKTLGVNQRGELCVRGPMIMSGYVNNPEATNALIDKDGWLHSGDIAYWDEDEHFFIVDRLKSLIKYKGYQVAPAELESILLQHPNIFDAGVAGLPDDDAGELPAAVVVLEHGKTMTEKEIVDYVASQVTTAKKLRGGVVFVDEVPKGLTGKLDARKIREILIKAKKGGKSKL
ASSAY_NOTES: inhibition of purified Photinus pyralis luciferase – biochemical, luminescence, purified enzyme, 2006 set, primary screen (AID 1141);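 note: cell-free assay with purified firefly luciferase at 100 ng per well in PBS; test concentration not given here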
ASSAY_CONTEXT: purified firefly luciferase, SteadyGlo luminescence, 30 min; higher = more signal, called active from +8 up or from −8 down
QUANTITY_KIND: z-score
Lab note: jot down the number only; don't add units.

COMPOUND	MEAS_VALUE
C=CCOC(=O)[C@@H]1[C@H]2C(=O)O[C@H](c3ccccc3)[C@H](c3ccccc3)N2[C@H](c2ccc(OCCOC(=O)[C@H]3C[C@H]4C(=O)N[C@@H](CCCCN(C)C)C(=O)N4[C@H]3c3ccc(O)cc3)cc2)[C@@]12C(=O)Nc1ccc(I)cc12	-4.54
CCCc1cc2c(n1CCc1ccc(Cl)cc1)C(C)C1CN(C(=O)c3ccccc3)C(C)(C(=O)OC)C21 (stereo not given)	-0.548
C=CCOC(=O)[C@H]1[C@@H]2C(=O)O[C@@H](c3ccccc3)[C@@H](c3ccccc3)N2[C@@H](c2ccc(OCCOC(=O)[C@@H]3C[C@@H]4C(=O)N[C@@H](CCCCNC(C)=O)C(=O)N4[C@@H]3c3cccc(OCCO)c3)cc2)[C@]12C(=O)Nc1ccccc12	-0.878
CC(C)(C)OC(=O)CC[C@]1(C(=O)NCC(O)CO)N=C(c2ccc(OCCCO)cc2)O[C@H]1c1ccccc1N=[N+]=[N-] (stereo not given in full)	-8.87

Sample `CC(C)N1C(=O)C[C@@](C(=O)NCCN2CCOCC2)(c2ccc([N+](=O)[O-])cc2)[C@H]1c1ccc(CO)cc1` — what was its z-score?
1.42

Reference source: PubChem BioAssay
